test system: peripheral blood mononuclear cells (PBMC), T cells; assay: ELISpot assay, IL-5 release (SFC) after stimulation with a-synuclein epitope pools; assay type: cell-based, human; conditions: Patients Summary; PD patients; single peptide
IL-g Response Frequency for assorted substances

>  <substance>
3521.0032 (GAVVTGVTAV; listed as Homo sapiens)

>  <test_system>
peripheral blood mononuclear cells (PBMC), T cells

>  <IL-g Response Frequency [%]>
0

$$$$
>  <substance>
3521.0028 (MPSEEGYQDY; listed as Homo sapiens)

>  <test_system>
peripheral blood mononuclear cells (PBMC), T cells

>  <IL-g Response Frequency [%]>
0

$$$$
>  <substance>
3521.0025 (EEGAPQEGI; listed as Homo sapiens)

>  <test_system>
peripheral blood mononuclear cells (PBMC), T cells

>  <IL-g Response Frequency [%]>
50

$$$$
>  <substance>
3521.0084 (YVGSKTKEGVVHGVA; listed as Homo sapiens)

>  <test_system>
peripheral blood mononuclear cells (PBMC), T cells

>  <IL-g Response Frequency [%]>
0

$$$$

====

test system: peripheral blood mononuclear cells (PBMC), T cells; experiment: ELISpot assay, IL-5 release (SFC) after stimulation with a-synuclein epitope pools; type: cell-based, human; conditions: single peptide; second 'Pool Stimulated' section (from r296), 12 donors tested

>  <substance>
3521.0041 (EGILEDMPVD; listed as Homo sapiens)

>  <units>
SFC

>  <IL-g Total SFC>
0

$$$$
>  <substance>
3521.0072 (EGVVHGVTTVAEKTK; listed as Homo sapiens)

>  <units>
SFC

>  <IL-g Total SFC>
0

$$$$
>  <substance>
3521.0023 (YEMPSEEGY; listed as Homo sapiens)

>  <units>
SFC

>  <IL-g Total SFC>
58

$$$$
>  <substance>
3521.008 (VAAAEKTKQGVAEAA; listed as Homo sapiens)

>  <units>
SFC

>  <IL-g Total SFC>
0

$$$$
>  <substance>
3521.0052 (KTKQGVAEAA; listed as Homo sapiens)

>  <units>
SFC

>  <IL-g Total SFC>
0

$$$$
>  <substance>
3521.0057 (NEEGAPQEGI; listed as Homo sapiens)

>  <units>
SFC

>  <IL-g Total SFC>
0

$$$$
>  <substance>
3521.0074 (VAAAEKTKQGVAEAP; listed as Homo sapiens)

>  <units>
SFC

>  <IL-g Total SFC>
0

$$$$
>  <substance>
3521.0055 (QEGILEDMPV; listed as Homo sapiens)

>  <units>
SFC

>  <IL-g Total SFC>
58

$$$$
>  <substance>
3521.0036 (AGSIAAATGF; listed as Homo sapiens)

>  <units>
SFC

>  <IL-g Total SFC>
0

$$$$
>  <substance>
3521.0042 (AGKTKEGVLY; listed as Homo sapiens)

>  <units>
SFC

>  <IL-g Total SFC>
0

$$$$

====

IL-g Peptide + for assorted substances
tested on: peripheral blood mononuclear cells (PBMC), T cells; assay: ELISpot assay, IL-5 release (SFC) after stimulation with a-synuclein epitope pools; assay type: cell-based, human; conditions: number of donors positive to the single peptide; second 'Pool Stimulated' section (from r296), 12 donors tested
measurement_label: IL-g Peptide +

>  <substance>
3521.0059 (AEAAGKTKEG; listed as Homo sapiens)

>  <measurement_label>
IL-g Peptide +

>  <measured_result>
0

$$$$
>  <substance>
3521.0086 (ATVAEKTKEQVTNVG; listed as Homo sapiens)

>  <measurement_label>
IL-g Peptide +

>  <measured_result>
0

$$$$
>  <substance>
3521.0018 (MPVDPDNEA; listed as Homo sapiens)

>  <measurement_label>
IL-g Peptide +

>  <measured_result>
0

$$$$
>  <substance>
3521.0075 (KQGVAEAPGKTKEGV; listed as Homo sapiens)

>  <measurement_label>
IL-g Peptide +

>  <measured_result>
1

$$$$
>  <substance>
3521.0042 (AGKTKEGVLY; listed as Homo sapiens)

>  <measurement_label>
IL-g Peptide +

>  <measured_result>
0

$$$$
>  <substance>
3521.0043 (VFMKGLSKAK; listed as Homo sapiens)

>  <measurement_label>
IL-g Peptide +

>  <measured_result>
1

$$$$
>  <substance>
3521.0051 (EEGAPQEGIL; listed as Homo sapiens)

>  <measurement_label>
IL-g Peptide +

>  <measured_result>
1

$$$$
>  <substance>
3521.0074 (VAAAEKTKQGVAEAP; listed as Homo sapiens)

>  <measurement_label>
IL-g Peptide +

>  <measured_result>
0

$$$$
>  <substance>
3521.0014 (KTVEGAGSI; listed as Homo sapiens)

>  <measurement_label>
IL-g Peptide +

>  <measured_result>
0

$$$$
>  <substance>
3521.0026 (MPSEEGYQD; listed as Homo sapiens)

>  <measurement_label>
IL-g Peptide +

>  <measured_result>
1

$$$$
>  <substance>
3521.0049 (APQEGILEDM; listed as Homo sapiens)

>  <measurement_label>
IL-g Peptide +

>  <measured_result>
0

$$$$
>  <substance>
3521.002 (AGKTKEGVL; listed as Homo sapiens)

>  <measurement_label>
IL-g Peptide +

>  <measured_result>
0

$$$$
>  <substance>
3521.0002 (PSEEGYQDY; listed as Homo sapiens)

>  <measurement_label>
IL-g Peptide +

>  <measured_result>
0

$$$$
>  <substance>
3521.0058 (SEEGYQDYEP; listed as Homo sapiens)

>  <measurement_label>
IL-g Peptide +

>  <measured_result>
1

$$$$
>  <substance>
3521.0069 (GVAEAAGKTK; listed as Homo sapiens)

>  <measurement_label>
IL-g Peptide +

>  <measured_result>
0

$$$$
>  <substance>
3521.0007 (AAATGFVKK; listed as Homo sapiens)

>  <measurement_label>
IL-g Peptide +

>  <measured_result>
0

$$$$
>  <substance>
3521.0004 (KTKEGVLYV; listed as Homo sapiens)

>  <measurement_label>
IL-g Peptide +

>  <measured_result>
0

$$$$
>  <substance>
3521.0073 (TTVAEKTKEQVTNVG; listed as Homo sapiens)

>  <measurement_label>
IL-g Peptide +

>  <measured_result>
0

$$$$
>  <substance>
3521.0008 (IAAATGFVK; listed as Homo sapiens)

>  <measurement_label>
IL-g Peptide +

>  <measured_result>
0

$$$$
>  <substance>
3521.0013 (VTNVGGAVV; listed as Homo sapiens)

>  <measurement_label>
IL-g Peptide +

>  <measured_result>
0

$$$$
>  <substance>
3521.007 (GVVAAAEKTK; listed as Homo sapiens)

>  <measurement_label>
IL-g Peptide +

>  <measured_result>
0

$$$$
